Test system: MDA-MB-231
Experiment: cells
Conditions: Homo sapiens, MDA-MB-231, 72 h
Description: Antiproliferative activity against human MDA-MB-231 cells incubated for 72 hrs by MTT assay
pIC50: −log10 of the molar value.

| Molecule | pIC50 |
| --- | --- |
| C=C(c1ccc(OC)c(OCC(=O)NO)c1)c1cc(C)nc2ccccc12 | 7.49 |
| C=C(c1ccc(OC)c(OC(C)(C)C(=O)NO)c1)c1cc(C)nc2ccccc12 | 7.51 |
| C=C(c1ccc(OC)c(OC(F)C(=O)NO)c1)c1cc(C)nc2ccccc12 (stereo not drawn) | 7.96 |
| C=C(c1cc(C)nc(C)c1)c1ccc(OC)c(OCC(=O)NO)c1 | 6.95 |
| C=C(c1ccc(OC)c(/C=C/C(=O)NO)c1)c1cc(C)nc2ccccc12 | 7.96 |
| C=C(c1cc(C)nc(C)c1)c1ccc(OC)c(OC(C)C(=O)NO)c1 (stereo not drawn) | 7.00 |
| COc1ccc(/C=C\c2cc(OC)c(OC)c(OC)c2)cc1O | 7.54 |
| C=C(c1ccc(OC)c(OC(C)C(=O)NO)c1)c1cc(C)nc2ccccc12 (stereo not drawn) | 7.55 |
